# measurement.target: SFRP-1 (Homo sapiens, UniProt Q8N474);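 also: test compound competes with a fluorescent probe held by SFRP-1, seen as a drop in probe anisotropy after incubation in darkness, with anisotropy as function of rising compound dose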
# Sequence (Q8N474 32-314): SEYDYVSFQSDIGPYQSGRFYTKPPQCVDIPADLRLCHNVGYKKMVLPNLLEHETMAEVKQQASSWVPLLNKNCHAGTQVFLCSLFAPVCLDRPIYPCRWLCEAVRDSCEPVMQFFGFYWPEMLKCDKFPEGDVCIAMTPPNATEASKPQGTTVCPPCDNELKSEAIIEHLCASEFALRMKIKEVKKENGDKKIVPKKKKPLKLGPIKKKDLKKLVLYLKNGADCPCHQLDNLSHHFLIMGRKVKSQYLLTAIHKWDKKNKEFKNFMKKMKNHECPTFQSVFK
assay.readout: IC50 (nM)

Check out these entries, answers already filled in.
compound=O=C(c1ccc(=O)[nH]c1)N1CCC(NS(=O)(=O)c2cc(S(=O)(=O)c3ccccc3)ccc2C(F)(F)F)CC1 measurement_target="SFRP-1 (Homo sapiens, UniProt Q8N474)" assay_readout=IC50 endpoint_value=140
compound=CC(C)c1ccc(S(=O)(=O)c2ccc(N(C)C)cc2)cc1S(=O)(=O)NCCc1ccccn1 measurement_target="SFRP-1 (Homo sapiens, UniProt Q8N474)" assay_readout=IC50 endpoint_value=500
compound=CN(CCNS(=O)(=O)c1cc(S(=O)(=O)c2ccccc2)ccc1C(F)(F)F)C(=O)N[C@H]1CCCN(C(=O)OC(C)(C)C)C1 measurement_target="SFRP-1 (Homo sapiens, UniProt Q8N474)" assay_readout=IC50 endpoint_value=600

I = CC(C)c1cc(C(C)C)c(S(=O)(=O)c2ccccc2)cc1S(=O)(=O)NCCc1ccccc1
II = COc1cccc(S(=O)(=O)c2ccc(Cl)c(S(=O)(=O)NC3CCOCC3)c2)c1
III = CCCc1ccc(S(=O)(=O)c2ccc(F)cc2)cc1S(=O)(=O)NCCc1ccncc1
Please put the entries in order of rising IC50. Provide your answer as the labels ordered per the instruction. III, I, II
(III: 600 nM, I: 2100 nM, II: 8000 nM)
